meta.source: patent US20220017615A1

- study_system: T1, His-tagged CD47 recombinant protein, CD47-His (human, UniProt Q08722 19-141, limits assumed)
- T1 construct: it is not restated for CD47-His; also called human CD47-His protein; antigen CD47-His; not shown: His tag
- assay_text: BLI (Octet Red 96), antibody on AHC sensor, CD47-His 100 nM
observable: Kd (nM)
One number for each entry, in nM.

Items follow; give Kd for each.
1. c20H4G5 (antibody, V domains shown) VH: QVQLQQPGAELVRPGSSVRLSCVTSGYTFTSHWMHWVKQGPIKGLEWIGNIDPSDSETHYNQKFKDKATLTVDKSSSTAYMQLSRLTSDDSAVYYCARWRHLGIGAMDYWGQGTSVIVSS VL: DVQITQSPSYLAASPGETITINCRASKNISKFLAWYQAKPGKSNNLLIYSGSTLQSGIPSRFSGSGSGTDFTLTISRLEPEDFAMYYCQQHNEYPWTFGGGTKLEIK
2. c29A03NA (antibody, V domains shown, Phage-derived clone 29A03 with the NG site of CDRL1 mutated to NA) VH: EVQLQQSGAELVKPGASVKMSCKASGYTFTNYWITWVKQRPGQGLEWIGDIYPVSGGTDYNEKFKTRATLTVDTSSSTAYMHLSSLTSEDSAVYYCARKGRGGVDYWGQGTTLTVSS VL: DILMTQTPLSLPVSLGDQASISCRSSQSIVHSNANTYLEWYLQKPGQSPKLLIYKVSNRFSGVPDRFSGSGSGTDFTLKISRVEAEDLGVYFCSQSTHVPYTFGGGTKLEIK
3. c95E2D10 (antibody, V domains shown) VH: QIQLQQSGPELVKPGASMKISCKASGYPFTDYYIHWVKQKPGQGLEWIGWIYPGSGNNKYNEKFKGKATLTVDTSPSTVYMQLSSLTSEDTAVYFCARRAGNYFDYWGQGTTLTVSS VL: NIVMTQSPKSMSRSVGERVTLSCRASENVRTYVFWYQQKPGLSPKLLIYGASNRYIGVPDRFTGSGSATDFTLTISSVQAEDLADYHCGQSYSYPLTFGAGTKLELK

Response given:
[0.695, 4.69, 10.2]
